Data credit: PubChem BioAssay

experimentalSystem: Alpha-bungarotoxin (Bungarus multicinctus)
testName: alpha-bungarotoxin binders on microarray, profiling panel, artefact control for SMM control protein annotation, biochemical, small-molecule microarray, Alexa647 label, 635/667 nm fluorescence (AID 1117)
conditionDescription: alpha-BTX-A647 binding fluorescence, higher = more signal
assayEndpoint: composite z-score
Give bare numbers.

Sample records with composite z-score:
compound: CO[C@H]1O[C@H](CO)[C@@H](OC(=O)c2ccc(Br)cc2)[C@@H]2OC(=O)[C@@H](Cc3ccc4ccccc4c3)C/C=C/C[C@H](Cc3ccc4ccccc4c3)C(=O)O[C@@H]12
assayEndpoint: composite z-score
value: 0.528

compound: O=C(CS)NCCCCCCNC(=O)[C@H]1C[C@H]2C(=O)N[C@@H](Cc3ccccc3)C(=O)N2[C@H]1c1cccc(OCCO)c1
assayEndpoint: composite z-score
value: 2.44

compound: C=C[C@@H](C)[C@H](OC(=O)Nc1ccc(SC)cc1)c1ccc(OCCO)cc1
assayEndpoint: composite z-score
value: 0.0265

compound: C=CC[C@@]12N=C(c3ccc(OCCCO)cc3)O[C@@H]1c1ccccc1N(CCS(=O)(=O)c1ccccc1)C2=O
assayEndpoint: composite z-score
value: 0.448

compound: CCOC(=O)C[C@H]1[C@H](OC(=O)c2ccc(-c3ccccc3)cc2)[C@@H](NC(=O)C2CCCCC2)c2cc(OCCCO)ccc2N1C(=O)c1ccccc1
assayEndpoint: composite z-score
value: 0.0785

Batch of 7 compounds: report composite z-score for each.
1. COC(=O)[C@H](Cc1ccccc1)N1CC(/C=C/C2CC2)=C[C@@H]1[C@@H](O)Cc1ccccc1
2. CC(=O)NCCCC[C@@H]1NC(=O)[C@@H]2C[C@H](C(=O)O)[C@H](c3ccc(O)cc3)N2C1=O
3. NCCCCCCNC(=O)[C@H]1C[C@H]2C(=O)N[C@@H](Cc3ccccc3)C(=O)N2[C@H]1c1ccc(O)cc1
4. COCCOC(=O)N1C(=O)[C@@]2(c3cc(C#CCC(C(=O)OC)C(=O)OC)ccc31)[C@H](c1ccc(OCCO)cc1)N1[C@H](c3ccccc3)[C@H](c3ccccc3)OC(=O)[C@H]1[C@@H]2C(=O)N1CCN(c2ncccn2)CC1
5. C=C(COC)/C(=C/C[C@@H](OC(=O)c1ccncc1)c1ccc(OCCO)cc1)c1cnc2ccccc2c1
6. COC(=O)[C@@]1(Cc2ccccc2)[C@H]2c3cc(C(=O)N4CCCC4)n(C[C@H](O)CO)c3C[C@H]2CN1C(=O)c1ccccc1
7. COc1ccc([Si](C)(C)[C@@H]2[C@@H](CCO)O[C@]3(C(=O)N(Cc4cccc(N5C(=O)c6ccccc6Oc6ccccc65)c4)c4ccccc43)[C@H]2C)cc1

RESULT:
1: 0.737; 2: -0.371; 3: 1.55; 4: 1.85; 5: 1.5; 6: -0.187; 7: -0.115
